Cited source: patent US12116358B2

Target: SETD2(1434-1711) (Homo sapiens, UniProt Q9BYW2)
Construct: SETD2 (1434-1711) Assay; catalogue N/A
Sequence (Q9BYW2 1434-1711): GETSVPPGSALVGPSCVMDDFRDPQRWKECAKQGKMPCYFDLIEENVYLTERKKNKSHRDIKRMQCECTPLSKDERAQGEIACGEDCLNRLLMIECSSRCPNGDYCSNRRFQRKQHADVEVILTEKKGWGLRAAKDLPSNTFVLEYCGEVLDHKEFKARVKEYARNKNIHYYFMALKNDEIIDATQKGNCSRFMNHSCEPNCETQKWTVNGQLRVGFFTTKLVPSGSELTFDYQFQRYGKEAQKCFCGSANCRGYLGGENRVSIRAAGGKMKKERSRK
Assay: SETD2 (1434-1711) assay
Format: biochemical
Settings: read-out: SETD2 (1434-1711)
readout: pIC50
The read-out pIC50 is expressed as -log10 of concentration in moles per litre.

Asked: Requested field: pIC50. Item: COC(=O)C[C@@H](NC(=O)c1cc2cccc(C)c2[nH]1)C(=O)OC [compound 694]
Given back: 4.21

Asked: Further, for Cc1cccc2cc(C(=O)Nc3cccc(N4CCN(C(=O)CN)CC4)c3)[nH]c12 [compound 396] ?
Given back: 6.52

Asked: Further, for Cc1cccc2cc(C(=O)Nc3cccc(N4CCC(NCCN)CC4)n3)[nH]c12 [compound 531] ?
Given back: 6.70

* * *

Target: SETD2(1434-1711) (Homo sapiens)
Construct: SETD2 (1434-1711) Assay; catalogue N/A
Assay: SETD2 (1434-1711) assay
Format: biochemical
Conditions: read-out: SETD2 (1434-1711)
What log10 IC50 was measured for each of the following?
The base-10 logarithm of IC50, taken with IC50 in nM, is what appears here.

Asked: Requested field: log10 IC50. Item: "CC(=O)N1CCN([C@H]2CCC[C@@H](NC(=O)c3cc4c(F)ccc(C)c4[nH]3)C2)[C@H](C)C1"
Given back: 2.90

Asked: Further, for CC(=O)N1CCN(C(=O)C2CCCN(C(=O)c3cc4c(F)ccc(C)c4[nH]3)C2)CC1 (centres unmarked) ?
Given back: 3.95

Asked: Further, for "CC(=O)N1CCN(c2cc(NC(=O)c3cc4c(F)ccc(C)c4[nH]3)ccc2F)CC1" ?
Given back: 1.85

Asked: Further, for "CC(=O)Nc1cccc(-c2cccc(NC(=O)c3cc4c(F)ccc(C)c4[nH]3)c2)c1" ?
Given back: 2.85

Asked: Further, for "Cc1ccc(F)c2cc(C(=O)N[C@@H]3CCC[C@@H](N4CCn5ncnc5C4)C3)[nH]c12" ?
Given back: 3.82

Asked: Further, for Cc1cccc2cc(C(=O)NCCc3ccccc3N3CCOC(CN(C)C)C3)[nH]c12 (centres unmarked) ?
Given back: 4.11

Asked: Further, for "Cc1ccc(F)c2cc(C(=O)Nc3cccc(N4CC[C@H](N(C)C)[C@H](C)C4)c3)[nH]c12" ?
Given back: 0.90

* * *

Biological target: SETD2(1434-1711) (Homo sapiens)
Construct: SETD2 (1434-1711) Assay; catalogue N/A
Assay: SETD2 (1434-1711) assay
Assay type: biochemical
Settings: read-out: SETD2 (1434-1711)
What IC50 was measured for each of the following?
Please reply with the bare figure in nM and do not write the unit itself.

Asked: Requested field: IC50. Item: Cc1ccc(F)c2cc(C(=O)Nc3cc(F)cc(N4CCN(C(=O)C(C)N(C)C)CC4)c3)[nH]c12 (stereo not shown)
Given back: 7

Asked: Further, for "Cc1ccc(F)c2cc(C(=O)Nc3cccc(N4CCC(NCCO)CC4)c3)[nH]c12" ?
Given back: 30

Asked: Further, for Cc1ccc(F)c2cc(C(=O)NC3CCCC(N4CCN5C(=O)NCC5C4)C3)[nH]c12 (stereo not shown) [compound 1083] ?
Given back: 20

Asked: Further, for "Cc1ccc(F)c2cc(C(=O)Nc3cccc(N4CCOCC4=O)c3)[nH]c12" ?
Given back: 200

Asked: Further, for Cc1cccnc1C(NC(=O)c1cc2cccc(C)c2[nH]1)C1CCCC1 (stereo not shown) ?
Given back: 10100

Asked: Further, for Cc1ccc(F)c2cc(C(=O)Nc3cccc(N4C5CCC4C(=O)N(C)C5)c3)[nH]c12 (stereo not shown) ?
Given back: 800

Asked: Further, for Cc1ccc(F)c2cc(C(=O)NC3C(=O)NCc4ccccc43)[nH]c12 (stereo not shown) ?
Given back: 2200

Asked: Further, for "CCOC(=O)N1CCN([C@@H]2CCC[C@@H](NC(=O)c3cc4c(F)ccc(C)c4[nH]3)C2)CC1" ?
Given back: 1200

Asked: Further, for "CC(=O)N1CCN([C@@H]2C[C@H](NC(=O)c3cc4c(F)ccc(C)c4[nH]3)CN(C)C2)CC1" ?
Given back: 1000

Asked: Further, for CC(=O)N1CCC2C1CCN2c1cc(F)cc(NC(=O)c2cc3c(F)ccc(C)c3[nH]2)c1 (stereo not shown) ?
Given back: 10

Asked: Further, for "Cc1cccc2cc(C(=O)NCCc3ccccc3N3CCOCC3)[nH]c12" ?
Given back: 11600

Asked: Further, for CC(=O)N(CCO)C1CCN([C@H]2CCC[C@@H](NC(=O)c3cc4c(F)ccc(C)c4[nH]3)C2)C1 (stereo partly shown) ?
Given back: 100

Asked: Further, for Cc1ccc(F)c2cc(C(=O)NC3CCCC(N4CCC(N(C)C(=O)C5COC5)C4)C3)[nH]c12 (stereo not shown) [compound 946] ?
Given back: 20

Asked: Further, for "Cc1ccc(N2CCN(C)CC2)cc1NC(=O)c1cc2c(F)ccc(C)c2[nH]1" ?
Given back: 300

Asked: Further, for "Cc1cccc2cc(C(=O)NCc3ccccc3N3CCNCC3)[nH]c12" ?
Given back: 16800
